Tested on: Pseudomonas aeruginosa Oxa6 (plasmid-coded β-lactamase)
Format: cell-based
measurementParameters: concentration 100 μg/ml; P. aeruginosa OXA 6
Parameter: inhibition spot diameter in the agar diffusion test. Scope: all listed entries.
Please reply with the bare figure in mm and do not write the unit itself.

Some entries whose results are on file:
CC1(C)S[C@@H]2[C@H](NC(=O)[C@H](NC(=O)N3CCNC3=O)c3ccccc3)C(=O)N2[C@H]1C(=O)O [Azlocillin, reference compound]    0
CC(=O)Oc1cccc(C(=O)N[C@@H](C)C(=O)N[C@@H](C(=O)N[C@@H]2C(=O)N3[C@@H]2SC(C)(C)[C@@H]3C(=O)O)c2ccccc2)c1OC(C)=O [Substance 27]    12
CC(=O)Oc1cccc(C(=O)Nc2ccccc2C(=O)N[C@@H](C(=O)N[C@@H]2C(=O)N3[C@@H]2SC(C)(C)[C@@H]3C(=O)O)c2ccccc2)c1OC(C)=O [Substance 28]    19
CC1(C)S[C@@H]2[C@H](NC(=O)[C@H](N)c3ccccc3)C(=O)N2[C@H]1C(=O)O [Ampicillin, reference compound]    0

Entry CC(=O)Oc1cccc(C(=O)Nc2ccc(C(=O)N[C@@H](C(=O)N[C@@H]3C(=O)N4[C@@H]3SC(C)(C)[C@@H]4C(=O)O)c3ccccc3)cc2)c1OC(C)=O [Substance 29] : reported inhibition spot diameter in the agar diffusion test = ? 13

---

Tested on: Stenotrophomonas maltophilia IMET 10402
assayComment: Agar diffusion test
Assay type: cell-based
measurementParameters: concentration 100 μg/ml
Kindly return Yes if reported inhibition spot diameter in the agar diffusion test is no lower than 20 mm; return No if it is lower.

Consider the following illustrative entries.
CC(=O)Oc1cccc(C(=O)N[C@@H](C)C(=O)N[C@@H](C(=O)N[C@@H]2C(=O)N3[C@@H]2SC(C)(C)[C@@H]3C(=O)O)c2ccccc2)c1OC(C)=O [Substance 27]    Yes
CC(=O)Oc1cccc(C(=O)Nc2ccccc2C(=O)N[C@@H](C(=O)N[C@@H]2C(=O)N3[C@@H]2SC(C)(C)[C@@H]3C(=O)O)c2ccccc2)c1OC(C)=O [Substance 28]    Yes
CC1(C)S[C@@H]2[C@H](NC(=O)[C@H](NC(=O)N3CCNC3=O)c3ccccc3)C(=O)N2[C@H]1C(=O)O [Azlocillin, reference compound]    Yes
CC(=O)Oc1cccc(C(=O)Nc2ccc(C(=O)N[C@@H](C(=O)N[C@@H]3C(=O)N4[C@@H]3SC(C)(C)[C@@H]4C(=O)O)c3ccccc3)cc2)c1OC(C)=O [Substance 29]    Yes

// inclusive: inhibition spot diameter in the agar diffusion test at least 20 mm? input: CC1(C)S[C@@H]2[C@H](NC(=O)[C@H](N)c3ccccc3)C(=O)N2[C@H]1C(=O)O [Ampicillin, reference compound] No

---

Test system: E. coli mutant KB4 ompF−
Type: cell-based
Listed below: inhibition spot diameter in agar diffusion test values for each entry.
# output: bare number, implied unit mm

CC1(C)S[C@@H]2[C@H](NC(=O)[C@H](NC(=O)N3CCNC3=O)c3ccccc3)C(=O)N2[C@H]1C(=O)O [Azlocillin, reference compound]    6.5
CC(=O)Oc1cccc(C(=O)Nc2ccc(C(=O)N[C@@H](C(=O)N[C@@H]3C(=O)N4[C@@H]3SC(C)(C)[C@@H]4C(=O)O)c3ccccc3)cc2)c1OC(C)=O    9.5
CC1(C)S[C@@H]2[C@H](NC(=O)[C@H](N)c3ccccc3)C(=O)N2[C@H]1C(=O)O [Ampicillin, reference compound]    10
CC(=O)Oc1cccc(C(=O)Nc2ccccc2C(=O)N[C@@H](C(=O)N[C@@H]2C(=O)N3[C@@H]2SC(C)(C)[C@@H]3C(=O)O)c2ccccc2)c1OC(C)=O    11.5

// query inhibition spot diameter in agar diffusion test value for entry CC(=O)Oc1cccc(C(=O)N[C@@H](C)C(=O)N[C@@H](C(=O)N[C@@H]2C(=O)N3[C@@H]2SC(C)(C)[C@@H]3C(=O)O)c2ccccc2)c1OC(C)=O 8.5
